TESTED_TARGET: jack bean urease (Canavalia ensiformis (Jack bean) (Dolichos ensiformis))
TEST_DETAILS: biochemical
Assay type: biochemical
SETTINGS: mean of triplicate; read-out: Ki ± S.E.M.
MEASURED_QUANTITY: pKi
# pKi is unitless: minus log10 of the molar concentration; print number only

In: Look up pKi: NC(N)=S [Thiourea, reference compound]
Out: 4.70

* * *

TESTED_TARGET: Jack bean (Canavalia ensiformis) urease (Canavalia ensiformis (Jack bean) (Dolichos ensiformis), UniProt P07374)
TEST_DETAILS: biochemical
Format: biochemical
SETTINGS: Table 2, jack bean urease; read-out: IC50
MEASURED_QUANTITY: IC50 (µM)
Give just the numeric value; µM need not be written.

In: Look up IC50: C(=Nc1nc(-c2ccccc2)cs1)c1c[nH]c2ccccc12
Out: 8.5

In: Look up IC50: Oc1ccc(Cl)cc1C=Nc1nc(-c2ccccc2)cs1
Out: 8.1

In: Look up IC50: Cc1ccc(C=Nc2nc(-c3ccccc3)cs2)o1
Out: 17.8
